meta.source: ChEMBL document CHEMBL1157406

- measurement target: Receptor-type tyrosine-protein kinase FLT3 (Homo sapiens)
- Sequence (P36888 whole entry): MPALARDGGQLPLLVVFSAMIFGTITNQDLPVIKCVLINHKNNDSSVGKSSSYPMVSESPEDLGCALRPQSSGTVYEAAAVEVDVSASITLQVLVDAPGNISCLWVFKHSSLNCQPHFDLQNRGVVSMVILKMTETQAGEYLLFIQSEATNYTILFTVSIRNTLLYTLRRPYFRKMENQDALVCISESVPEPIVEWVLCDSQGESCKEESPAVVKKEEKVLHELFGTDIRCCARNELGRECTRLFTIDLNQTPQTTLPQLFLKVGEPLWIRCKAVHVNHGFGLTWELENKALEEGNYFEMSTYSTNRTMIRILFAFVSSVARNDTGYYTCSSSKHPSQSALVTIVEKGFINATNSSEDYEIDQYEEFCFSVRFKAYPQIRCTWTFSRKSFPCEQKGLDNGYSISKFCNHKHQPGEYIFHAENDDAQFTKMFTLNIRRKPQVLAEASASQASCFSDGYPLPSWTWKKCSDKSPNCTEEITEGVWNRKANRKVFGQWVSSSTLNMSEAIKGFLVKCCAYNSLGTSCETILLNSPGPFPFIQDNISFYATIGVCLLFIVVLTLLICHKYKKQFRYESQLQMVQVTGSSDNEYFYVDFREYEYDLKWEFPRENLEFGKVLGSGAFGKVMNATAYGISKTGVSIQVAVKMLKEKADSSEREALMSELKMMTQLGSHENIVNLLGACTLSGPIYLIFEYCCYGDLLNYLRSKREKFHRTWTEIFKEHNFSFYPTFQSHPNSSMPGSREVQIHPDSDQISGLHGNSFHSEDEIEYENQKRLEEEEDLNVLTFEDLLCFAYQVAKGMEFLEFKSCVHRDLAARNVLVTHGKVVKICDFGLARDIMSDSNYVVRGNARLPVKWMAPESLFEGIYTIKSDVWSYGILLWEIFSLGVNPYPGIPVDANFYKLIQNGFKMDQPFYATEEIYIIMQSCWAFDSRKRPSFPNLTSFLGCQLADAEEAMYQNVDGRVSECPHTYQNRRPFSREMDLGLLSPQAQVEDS
- protocol: Inhibition of recombinant FLT3
measure name: IC50 (×10⁻⁷ g/ml)
Please respond with the number in ×10⁻⁷ g/ml and leave the unit unwritten.

Below are worked cases with known answers.
>  <chemical string>
COc1cc(O)c2c(=O)oc3c(O)c(O)cc(C)c3c2c1

>  <IC50 (×10⁻⁷ g/ml)>
5.3

$$$$
>  <chemical string>
Cc1cc(O)cc2oc(=O)c3c(O)cc(OS(=O)(=O)O)cc3c12

>  <IC50 (×10⁻⁷ g/ml)>
3.3

$$$$
>  <chemical string>
Cc1cc(O)cc2oc(=O)c3c(O)cc(O)cc3c12

>  <IC50 (×10⁻⁷ g/ml)>
4.3

$$$$

# context switch: different molecule, same IC50
Summary for this molecule, "O=C1C[C@H](O)[C@@H]2c3c(ccc(O)c31)-c1ccc(O)c3c1[C@@]2(O)CCC3=O" : IC50 is 6.6
